System: Saccharomyces cerevisiae
Experiment: protein stability index of tFT-peptide fusion (C-terminal peptide) (PSI (0-1 scale)); higher = more stable (slower turnover)
Conditions: genetic background: wild type; temperature: 30 C
Record form. Attribute: protein stability index. Fill in for each entry.
One number for each entry.

LYQEPLRNACFC    0.683
VVPSMFPGAEVL    0.691
RLIDMNFPVKKE    0.709

As a next step, examine the sequence that follows.
For SVRVRKGRYDNK on Saccharomyces cerevisiae, measured protein stability index was 0.707

* * *

Tested on: Saccharomyces cerevisiae
Test: protein stability index of tFT-peptide fusion (C-terminal peptide) (PSI (0-1 scale)); higher = more stable (slower turnover)
Settings: genetic background: wild type; temperature: 30 C
RECORDED_METRIC: protein stability index
One number for each entry.

GGGRGGSTPALG    0.667

Report protein stability index for each item below.
1. PLPSRAPVQFLL
2. PTGPPPPSLGPP

0.319
0.694

Report protein stability index for each item below.
1. QNKKKEKKQEIQ
2. TSPQHPWPPAPL

[0.7, 0.694]

* * *

Record form. Attribute: protein stability index. Fill in for each entry.
Tested on: Saccharomyces cerevisiae
Assay: protein stability index of tFT-peptide fusion (C-terminal peptide) (PSI (0-1 scale)); higher = more stable (slower turnover)
Conditions: genetic background: wild type; temperature: 30 C
Answers are plain numbers.

Previously resolved entries follow.
FFDSPHCRYACV    0.744
ERKNTTSEFTNL    0.684
HPPPARSPPSLP    0.741
PALPPPPPSPPL    0.676
SFVFSVFGAGVD    0.778

Report protein stability index for each item below.
1. RPSPPPLRPFVL
2. KNVVSVRWERNE
3. VTFCFLFVWFLV

0.576
0.635
0.283

Report protein stability index for each item below.
1. SVFRFLFLALLV
2. ISCWHGYAKESS

[0.191, 0.671]

Report protein stability index for each item below.
1. PPHPPLPPPSPS
2. WRGGAWVRGCVL
3. RRSPYLPRILTP
4. RLGGRDCWGPWG

0.704
0.74
0.661
0.693

* * *

Record form. Attribute: protein stability index. Fill in for each entry.
Tested on: Saccharomyces cerevisiae
Assay: protein stability index of tFT-peptide fusion (C-terminal peptide) (PSI (0-1 scale)); higher = more stable (slower turnover)
Conditions: genetic background: wild type; temperature: 30 C
One number for each entry.

Previously resolved entries follow.
KNEEKIDKIEEQ    0.72
PFIPQPFPPLCS    0.709
PSWPRLSFRPST    0.689
SPPVTASLCLFS    0.692

Report protein stability index for each item below.
1. FCLAPMLLPGSF
2. GGGLGAGWGVWG
3. PLAFFSTRPTPF
4. FEVSGYRNGRAL
5. PPVSPPPSRHPL

1. 0.679
2. 0.68
3. 0.697
4. 0.694
5. 0.719

* * *

Test system: Saccharomyces cerevisiae;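 also: PSI is a weighted mean of sequencing reads over stability bins, variants kept only with over 10 reads, mCherry proximal and sfGFP distal, peptide attached via GGGS linker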
Experiment: protein stability index of tFT-peptide fusion (C-terminal peptide) (PSI (0-1 scale)); higher = more stable (slower turnover)
Details: genetic background: wild type; temperature: 30 C
RECORDED_METRIC: protein stability index
Numbers only.

Previously resolved entries follow.
INLRENETKQRN    0.673
WPPRPPRPSSTL    0.724
EGRGSVVGSSEG    0.633

As a next step, examine the sequence that follows.
For WGVVGEWAGVGR on Saccharomyces cerevisiae, measured protein stability index was 0.747

Recorded values, source the supplement of paper PMC10724198.
